Tested on: OVCAR-4 ovarian
METHOD: NCI-60 one-dose screen, 48 h (100 = growth as untreated, 0 = no growth, -100 = all killed)
MEASUREMENT_PARAMETERS: 10 µM unless noted
This is part of a sample that, as a whole, favours compounds with a hit. Of some 83,000 tested, about 20% had one in any assay.
// F strictly below 30% in growth; T otherwise

>>> df
                                   compound  answer_label
0  O=C1OCC2=C1C(c1cccc(C(F)(F)F)c1)c1cc3c(cc1N2CCO)OCO3 (stereo not given)             T
1  CN1CCN(C(=O)c2cc(-c3ccc4ncnc(N5CCc6cc(F)c(Cl)cc65)c4c3)cnc2N)CC1             F
2  COc1cc(/C=C\c2cc(/C=C\c3ccc(O)c(OC)c3)n(C(=O)CNc3ccc(Cl)cc3)n2)ccc1O             T
3  Nc1c(C(=O)Nc2cccc3ncccc23)sc2nc3c(cc12)C(=O)CCC3             T
4  CCN1C(=O)N(CC)C2C1NN=C1SCC(=O)N12 (stereo not given)             T

* * *

System: KM12 colon
METHOD: NCI-60 one-dose screen, 48 h (100 = growth as untreated, 0 = no growth, -100 = all killed)
MEASUREMENT_PARAMETERS: 10 µM unless noted
Compounds without any hit were thinned out: in the full panel of roughly 83,000, 20% have a hit.
Each record gets a class by growth: Low (below 20%), Mid (20% to below 90%), High (90% or more)

>>> print(df.to_string())
                                chem_smiles  answer_label
0  COCC[C@H]1CCC/C=C/[C@@H]2C[C@H](O)C[C@H]2[C@H](O)/C=C/C(=O)O1           Low
1  CCN(CC)c1ccc(/C=C\c2cc(C)c3cc(C)ccc3n2)cc1           Mid
2  CCn1cc(C2=C(c3cn(C)c4ncccc34)C(=O)NC2=O)c2cccnc21           Mid
3  C/C(=C(\c1ccc(OCCN2CCCCCC2)cc1)c1ccc(OC(=O)Cc2ccccc2)cc1)c1ccc(Cl)cc1           Mid
4  CCOC(=O)NN1CC(O)=C(c2nc(-c3ccc(Br)cc3)cs2)C1=N          High
5         O=C(Nc1ncc(Cc2ccccc2Cl)s1)c1cccs1           Mid
6   CC/C=C1/C(=O)C=C[C@@H]1C/C=C\CCCC(=O)OC           Low
7  O=C(O)c1cn(C2CC2)c2cc(N3CCN(C(=O)N/N=C/c4ccccc4)CC3)c(F)cc2c1=O          High

* * *

Listed below: growth values for each entry.
System: LOX IMVI melanoma
METHOD: NCI-60 one-dose screen, 48 h (100 = growth as untreated, 0 = no growth, -100 = all killed)
MEASUREMENT_PARAMETERS: 10 µM unless noted
Protocol: Growth inhibition of the LOX IMVI human tumor cell line is measured as a screen for anti-cancer activity. Cells are grown in 96 well plates and exposed to the test compound for 48 hours. Compounds are tested at a single concentration, which is 10^-5 M for most compounds. The reported endpoint is percent growth (GI% or GIPRCNT), where numbers from 0 - 100% represent growth inhibition, and numbers from -100% - 0 represent cell death. For example, a value of 40 represents 60% growth inhibition. […]
About 83,000 compounds went through this panel and 20% of them were active in at least one assay; those are over-represented in the sample as a whole.
REPORTED_PROPERTY: growth (%)

In [3]: df
Out[3]:
                                   molecule       assay_target  reported_property  measured_number
0  C=C(c1ccc(C(=O)O)cn1)c1cc2c(cc1C)C(C)(C)CCC2(C)C  LOX IMVI melanoma             growth             87.3
1  COc1ccc(NC(=O)c2sc3nc(C)c(C(O)c4ccccc4)cc3c2N)cc1 (configuration not stated)  LOX IMVI melanoma             growth             55.1
2  CCn1cc(CNc2ccc(C(=O)Nc3cc4cc(OC)c(OC)cc4c(C)n3)cc2)c(C)n1  LOX IMVI melanoma             growth             23.9
3  COc1cc(C2=NN(C(C)=O)C(c3ccc(N(C)C)cc3)C2)cc(OC)c1OC (configuration not stated)  LOX IMVI melanoma             growth             96.5
4  COC(=O)C1=C(C(=O)Nc2cccnc2)C2OC1(C(Cc1ccccc1)Oc1ccccc1)C1OC21 (configuration not stated)  LOX IMVI melanoma             growth             80.7
5  N#Cc1nc(-c2ccc(F)cc2)oc1S(=O)(=O)N1CCN(c2ccc(F)cc2)CC1  LOX IMVI melanoma             growth             10.3
6  Cc1ccc(-c2cc(C(=O)N3N=C(c4ccc(N)cc4)CC3c3ccc(Cl)cc3)c3ccccc3n2)cc1 (configuration not stated)  LOX IMVI melanoma             growth             37.2

* * *

System: UACC-257 melanoma
METHOD: NCI-60 one-dose screen, 48 h (100 = growth as untreated, 0 = no growth, -100 = all killed)
MEASUREMENT_PARAMETERS: 10 µM unless noted
About 83,000 compounds went through this panel and 20% of them were active in at least one assay; those are over-represented in the sample as a whole.
REPORTED_PROPERTY: growth (%)

In [3]: df
Out[3]:
                                   compound  measure_unit  measured_number
0      CCOC(=O)/C=C/c1c(C)[nH]c(=O)[nH]c1=O             %              109
1  COP(=O)(OC)c1nnn(-c2cccc([N+](=O)[O-])c2)c1C             %              105
2  CC(O)c1ncc(/C=C2\SC(=S)N(Cc3ccccc3)C2=O)s1 (stereo not drawn)             %             96.2

* * *

System: OVCAR-3 ovarian
METHOD: NCI-60 one-dose screen, 48 h (100 = growth as untreated, 0 = no growth, -100 = all killed)
MEASUREMENT_PARAMETERS: 10 µM unless noted
This is part of a sample that, as a whole, favours compounds with a hit. Of some 83,000 tested, about 20% had one in any assay. Activity calls are given as the source filed them. How the source made its calls: active means growth percent below 10; inactive means the rest.
Property: growth; scope: individual molecules
REPORTED_PROPERTY: growth

In [3]: df
Out[3]:
                                    molecule  reported_property            result
 0  COc1ccc(C2=CN3CC=CCC3CC2=O)cc1 (configuration not stated)             growth   102% (inactive)
 1  COC(=O)C1=C(C(=O)Nc2cccnc2)C2OC1(C(Cc1ccccc1)Oc1ccccc1)C1OC21 (configuration not stated)             growth   -53.5% (active)
 2         Fc1ccc(CNc2c3ccccc3nc3ccccc23)cc1             growth  38.7% (inactive)
 3  CCOC(=O)C1=C(c2ccccc2)N=c2s/c(=C/c3ccc(Br)cc3)c(=O)n2C1c1ccc(O)cc1 (configuration not stated)             growth  86.1% (inactive)
 4  Cn1cc(-c2csc(-c3cn(C(=O)OC(C)(C)C)c4ccccc34)n2)c2ccnc(Cl)c21             growth  61.3% (inactive)
 5  CC1(C)CC2=C3C=C[C@@H]4[C@@]5(C)CC[C@H](O)C(C)(C)[C@@H]5CC[C@@]4(C)[C@]3(C)CC[C@@]2(C(=O)O)CC1=O             growth  22.2% (inactive)
 6  CC(=O)N(Cc1ccccc1)c1nc2ccc(O)c(CN(C)C)c2s1             growth   105% (inactive)
 7  COc1cc(-c2cc(-c3ccc(Nc4ncnc5cc(Cl)ccc45)cc3)nc(N3CCN(C)CC3)n2)cc(OC)c1OC             growth   105% (inactive)
 8   CCOc1ccc(NC(=O)c2cc(OC)c(OC)c(OC)c2)cc1             growth   -3.43% (active)
 9         CCCCc1oc2ccccc2c1C(=O)c1ccc(O)cc1             growth  94.3% (inactive)
10         CCCCCCC(=O)Nc1ncc(Cc2ccc(C)cc2)s1             growth    8.65% (active)
11  O=C1NC(=O)c2c1c1c3ccccc3[nH]c1c1oc3cc(Br)ccc3c21             growth  89.9% (inactive)
12  COc1ccc(C2=C/C(=C\c3ccc(Cl)cc3)C(=O)N2/N=C/c2ccc(Cl)cc2)cc1             growth  99.6% (inactive)
13       O=C(Cn1nnc([N+](=O)[O-])n1)c1ccccc1             growth   100% (inactive)
14  CCOC(=O)c1c(C)nc2c(c1N)CC(=O)N2Cc1cc(OC)c(OC)c(OC)c1             growth  23.5% (inactive)
15  COCC[C@H]1CCC/C=C/[C@@H]2C[C@H](O)C[C@H]2[C@H](O)/C=C/C(=O)O1             growth   -47.8% (active)
16  CN1C(=O)N(C)C2C1NC(=S)N2/N=C/C=C/c1ccccc1[N+](=O)[O-] (configuration not stated)             growth    8.13% (active)
17  CC(/C=C1\SC(=S)N(CC(=O)NC(Cc2c[nH]c3ccccc23)C(=O)O)C1=O)=C\c1ccccc1 (configuration not stated)             growth   108% (inactive)
18       O=C1NC(=Nc2ccc(O)cc2)S/C1=C\c1cccs1             growth    8.01% (active)
19  COc1ccc(/C=C/C(=O)c2cc3c(N)c(C(=O)Nc4ccc(OC)cc4)sc3nc2C)cc1             growth    2.94% (active)
20  CCCCCCCC/C=C\CCCCCCCCOc1ccc(CC(=O)NCC[N+](C)(C)C)cc1             growth  83.3% (inactive)
21  CN(C)c1ccc(-c2cc(-c3ccc(Nc4nc(Nc5ccc(Cl)cc5)nc(Nc5ccc(Cl)cc5)n4)cc3)nc(N)c2C#N)cc1             growth  88.3% (inactive)
